Test system: BT-549 (Breast Carcinoma)
Test: combination Emax (second highest fraction inhibited in the dose matrix, 72 h); higher = more inhibition; extreme values may be limits of the assay
Parameter combination Emax: see the listing below.
Number, no unit, nothing else.

[in] Fill in the blank: the reported combination Emax of COc1nnc2ccc(N3CCC(c4ccc(OCCN5CCN(C)C(=O)[C@H]5C)cc4)CC3)nn12 [AZD5153] + CC1(C)CCC(CN2CCN(c3ccc(C(=O)NS(=O)(=O)c4ccc(NCC5CCOCC5)c([N+](=O)[O-])c4)c(Oc4cnc5[nH]ccc5c4)c3)CC2)=C(c2ccc(Cl)cc2)C1 [Venetoclax] (first compound max 1 µM, 7x7, partner max 1 µM) is ____.
[out] 0.518

[in] // repeat for CN(CCO)CC[C@H](CSc1ccccc1)Nc1ccc(S(=O)(=O)NC(=O)c2ccc(N3CCC([C@@H](O)c4ccccc4-c4ccc(Cl)cc4)CC3)cc2)cc1S(=O)(=O)C(F)(F)F [AZD4320] + Cn1cnc2c(F)c(Nc3ccc(Br)cc3Cl)c(C(=O)NOCCO)cc21 [Selumetinib] (first compound max 1 µM, 7x7, partner max 3 µM) and report
[out] 0.327

----------
System: OE19 (Esophageal Adenocarcinoma)
Experiment: Bliss excess, mean over the matrix (fraction); higher = more synergy
QUANTITY KIND: Bliss excess
Number, no unit, nothing else.

Look over these answered cases.
CN(CCO)CC[C@H](CSc1ccccc1)Nc1ccc(S(=O)(=O)NC(=O)c2ccc(N3CCC([C@@H](O)c4ccccc4-c4ccc(Cl)cc4)CC3)cc2)cc1S(=O)(=O)C(F)(F)F [AZD4320] + CN(C)CCCOc1ccc(-c2ccc3ncc4c(c3c2)n(C2CCOCC2)c(=O)n4C)cn1 [AZD0156] (first compound max 1 µM, 7x7, partner max 1 µM) ... -0.086
CN(C)CCCOc1ccc(-c2ccc3ncc4c(c3c2)n(C2CCOCC2)c(=O)n4C)cn1 [AZD0156] + C[C@@H]1COCCN1C2=NC(=NC(=C2)C3(CC3)[S@](=N)(=O)C)C4=C5C=CNC5=NC=C4 [AZD6738] (first compound max 1 µM, 7x7, partner max 10 µM) ... 0.0277

[in] Fill in the blank: the reported Bliss excess of COc1cccc(OCCCN)c1-c1cc(Nc2cnc(C#N)cn2)n[nH]1 [Prexasertib] + CN(C)CCCOc1ccc(-c2ccc3ncc4c(c3c2)n(C2CCOCC2)c(=O)n4C)cn1 [AZD0156] (first compound max 1 µM, 7x7, partner max 1 µM) is ____.
[out] 0.0198

----------
Tested on: BT-549 (Breast Carcinoma)
Experiment: Bliss excess, mean over the matrix (fraction); higher = more synergy
QUANTITY KIND: Bliss excess
Number, no unit, nothing else.

NC1(C(=O)N[C@@H](CCO)c2ccc(Cl)cc2)CCN(c2ncnc3[nH]ccc23)CC1 [Capivasertib] + CC(=O)c1c(C)c2cnc(Nc3ccc(N4CCNCC4)cn3)nc2n(C2CCCC2)c1=O [Palbociclib] (first compound max 10 µM, 7x7, partner max 10 µM) ... -0.0064

# next molecule below
[in] Enter reported Bliss excess observed with BT-549 (Breast Carcinoma) for Cc1c2c(nn1C)CSCc1cc(n(C)n1)CSc1cc(c3ccccc3c1)OCCCc1c(C(=O)O)n(C)c3c-2c(Cl)ccc13 [AZD5991] + CCN(CCO)CCCOc1ccc2c(Nc3cc(CC(=O)Nc4cccc(F)c4)[nH]n3)ncnc2c1 [AZD2811] (first compound max 1 µM, 7x7, partner max 1 µM)
[out] 0.0908
